# measurement-target: T1, TRCW5 antigen (CD3δε-Fc-Avi) (biotinylated (site not stated))
# T1 construct: also called recombinant CD3
# T1 sequence (chain, as listed by the source mutant limits assumed): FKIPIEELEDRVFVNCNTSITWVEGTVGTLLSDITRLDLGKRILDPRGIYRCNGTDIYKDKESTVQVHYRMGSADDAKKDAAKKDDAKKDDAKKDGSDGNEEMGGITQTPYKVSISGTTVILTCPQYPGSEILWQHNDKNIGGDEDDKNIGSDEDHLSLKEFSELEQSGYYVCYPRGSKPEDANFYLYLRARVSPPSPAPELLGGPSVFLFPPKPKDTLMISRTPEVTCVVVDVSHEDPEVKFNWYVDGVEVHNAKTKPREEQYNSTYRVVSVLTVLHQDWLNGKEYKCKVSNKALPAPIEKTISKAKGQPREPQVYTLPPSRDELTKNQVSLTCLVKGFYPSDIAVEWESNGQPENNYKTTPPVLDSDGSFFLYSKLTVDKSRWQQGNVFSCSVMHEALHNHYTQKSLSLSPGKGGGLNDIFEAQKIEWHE
# protocol-notes: binding after heat
Each entry below lists one item and its recorded % Retained 65° C. value.
property-name: % Retained 65° C. (%)

INSERT INTO assay_data (binder, property_name, test_value) VALUES
  ('CD3B2030 N106Q (scFv, also called CD3B2030 NtoQ) scFv: QVQLVQSGAEVKKPGSSVKVSCKASGYTFTRSTMHWVKQAPGQGLEWIGYINPSSAYTNYNQKFQGRVTLTADKSTSTAYMELSSLRSEDTAVYYCASPQVHYDYQGFPYWGQGTLVTVSSGGSEGKSSGSGSESKSTGGSEIVLTQSPATLSASPGERVTLSCSASSSVSYMNWYQQKPGQAPRRWIYDSSKLASGVPARFSGSGSGRDYTLTISSLEPEDFAVYYCQQWSRNPPTFGGGTKVEIK', '% Retained 65° C.', 72.3),
  ('CD3B2030 N106A (scFv) scFv: QVQLVQSGAEVKKPGSSVKVSCKASGYTFTRSTMHWVKQAPGQGLEWIGYINPSSAYTNYNQKFQGRVTLTADKSTSTAYMELSSLRSEDTAVYYCASPQVHYDYAGFPYWGQGTLVTVSSGGSEGKSSGSGSESKSTGGSEIVLTQSPATLSASPGERVTLSCSASSSVSYMNWYQQKPGQAPRRWIYDSSKLASGVPARFSGSGSGRDYTLTISSLEPEDFAVYYCQQWSRNPPTFGGGTKVEIK', '% Retained 65° C.', 55.6);
